test: Clearance in mouse at 3 mg/kg, iv; format: ADME, organism-based; design: dose 3 mg/kg, route intravenous; conditions: in vivo
Parameter Measured: clearance (mL/min/kg)
Give bare numbers, in mL/min/kg.

Guide cases for clearance, answers given:
1. Cc1cccc(NC(=O)Nc2ccc(-c3cncc4c3c(N)nn4C)cc2)c1 :: 12.7
2. Cc1ccc(F)c(NC(=O)Nc2ccc(-c3ccnc4[nH]nc(N)c34)cc2)c1 :: 17.3
3. Cc1cc(C)cc(NC(=O)Nc2ccc(-c3nccc4[nH]nc(N)c34)cc2)c1 :: 43.7

QUERY: What measured clearance goes with Cc1ccc(F)c(NC(=O)Nc2ccc(-c3cncc4c3c(N)nn4C)cc2)c1 ?
RESULT: 11.5

----------
Consider the following molecules; for each one, report its Vd.
assay: Volume of distribution in mouse at 3 mg/kg, iv; assay type: ADME, organism-based; design: dose 3 mg/kg, route intravenous; settings: in vivo
Give bare numbers, in L/kg.

Guide cases for Vd, answers given:
1. Cc1ccc(F)c(NC(=O)Nc2ccc(-c3ccnc4[nH]nc(N)c34)cc2)c1 :: 1.5
2. Cc1cccc(NC(=O)Nc2ccc(-c3cncc4c3c(N)nn4C)cc2)c1 :: 0.66
3. Cc1cc(C)cc(NC(=O)Nc2ccc(-c3nccc4[nH]nc(N)c34)cc2)c1 :: 1.71

Shift focus to the following entry.
QUERY: What measured Vd goes with Cc1ccc(F)c(NC(=O)Nc2ccc(-c3cncc4c3c(N)nn4C)cc2)c1 ?
RESULT: 1.48

----------
Entries below carry reported pIC50 on Vascular endothelial growth factor receptor 2 (Homo sapiens).
Sequence (P35968 whole entry): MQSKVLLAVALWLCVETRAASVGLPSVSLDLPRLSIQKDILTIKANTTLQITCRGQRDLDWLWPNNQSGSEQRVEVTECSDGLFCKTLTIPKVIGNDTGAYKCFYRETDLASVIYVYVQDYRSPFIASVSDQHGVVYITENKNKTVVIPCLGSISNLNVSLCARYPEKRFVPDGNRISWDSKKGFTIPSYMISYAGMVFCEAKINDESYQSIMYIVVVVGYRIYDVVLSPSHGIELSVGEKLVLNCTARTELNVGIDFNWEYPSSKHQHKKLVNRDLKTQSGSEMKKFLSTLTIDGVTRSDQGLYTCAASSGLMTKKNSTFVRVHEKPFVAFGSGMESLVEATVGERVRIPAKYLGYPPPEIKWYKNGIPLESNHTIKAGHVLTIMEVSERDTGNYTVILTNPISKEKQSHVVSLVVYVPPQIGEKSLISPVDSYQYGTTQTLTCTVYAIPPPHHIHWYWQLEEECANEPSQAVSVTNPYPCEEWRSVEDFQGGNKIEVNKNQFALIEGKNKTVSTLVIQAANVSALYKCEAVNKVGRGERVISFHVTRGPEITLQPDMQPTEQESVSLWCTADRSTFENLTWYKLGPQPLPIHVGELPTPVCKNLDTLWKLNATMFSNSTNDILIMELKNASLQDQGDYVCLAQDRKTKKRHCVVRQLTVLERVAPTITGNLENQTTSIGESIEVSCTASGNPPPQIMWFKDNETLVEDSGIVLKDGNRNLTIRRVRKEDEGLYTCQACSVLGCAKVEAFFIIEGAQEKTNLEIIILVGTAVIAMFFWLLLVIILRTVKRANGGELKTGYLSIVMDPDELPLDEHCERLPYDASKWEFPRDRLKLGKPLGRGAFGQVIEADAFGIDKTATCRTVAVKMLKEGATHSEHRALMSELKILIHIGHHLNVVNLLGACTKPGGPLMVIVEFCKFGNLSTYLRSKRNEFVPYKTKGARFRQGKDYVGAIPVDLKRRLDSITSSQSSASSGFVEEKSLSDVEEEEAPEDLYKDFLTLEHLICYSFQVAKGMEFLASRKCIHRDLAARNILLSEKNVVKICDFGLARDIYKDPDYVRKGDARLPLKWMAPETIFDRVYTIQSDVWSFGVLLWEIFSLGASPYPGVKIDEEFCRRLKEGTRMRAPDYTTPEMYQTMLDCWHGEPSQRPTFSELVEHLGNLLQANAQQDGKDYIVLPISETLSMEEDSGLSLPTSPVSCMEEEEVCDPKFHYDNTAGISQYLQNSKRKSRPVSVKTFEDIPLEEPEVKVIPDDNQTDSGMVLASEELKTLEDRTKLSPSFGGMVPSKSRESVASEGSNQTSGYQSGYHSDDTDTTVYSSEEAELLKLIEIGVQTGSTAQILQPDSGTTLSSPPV
One number for each entry, as −log10 of the molar value.

# return pIC50 for each item in the list
1. Cc1ccccc1NC(=O)Nc1ccc(-c2ccnc3[nH]nc(N)c23)cc1
2. Cc1ccc(F)c(NC(=O)Nc2ccc(-c3cncc4c3c(N)nn4C)cc2)c1

RESULT:
1: 8.66; 2: 8.52

----------
Entries below carry reported pIC50 on Vascular endothelial growth factor receptor 2 (Homo sapiens).
One number for each entry, as −log10 of the molar value.

1) Cc1ccc(F)c(NC(=O)Nc2ccc(-c3cncc4c3c(N)nn4C)cc2)c1 :: 8.11

QUERY: What measured pIC50 goes with Cc1ccccc1NC(=O)Nc1ccc(-c2ccnc3[nH]nc(N)c23)cc1 ?
RESULT: 7.46

----------
Target: Receptor-type tyrosine-protein kinase FLT3 (Homo sapiens)
Sequence (P36888 whole entry): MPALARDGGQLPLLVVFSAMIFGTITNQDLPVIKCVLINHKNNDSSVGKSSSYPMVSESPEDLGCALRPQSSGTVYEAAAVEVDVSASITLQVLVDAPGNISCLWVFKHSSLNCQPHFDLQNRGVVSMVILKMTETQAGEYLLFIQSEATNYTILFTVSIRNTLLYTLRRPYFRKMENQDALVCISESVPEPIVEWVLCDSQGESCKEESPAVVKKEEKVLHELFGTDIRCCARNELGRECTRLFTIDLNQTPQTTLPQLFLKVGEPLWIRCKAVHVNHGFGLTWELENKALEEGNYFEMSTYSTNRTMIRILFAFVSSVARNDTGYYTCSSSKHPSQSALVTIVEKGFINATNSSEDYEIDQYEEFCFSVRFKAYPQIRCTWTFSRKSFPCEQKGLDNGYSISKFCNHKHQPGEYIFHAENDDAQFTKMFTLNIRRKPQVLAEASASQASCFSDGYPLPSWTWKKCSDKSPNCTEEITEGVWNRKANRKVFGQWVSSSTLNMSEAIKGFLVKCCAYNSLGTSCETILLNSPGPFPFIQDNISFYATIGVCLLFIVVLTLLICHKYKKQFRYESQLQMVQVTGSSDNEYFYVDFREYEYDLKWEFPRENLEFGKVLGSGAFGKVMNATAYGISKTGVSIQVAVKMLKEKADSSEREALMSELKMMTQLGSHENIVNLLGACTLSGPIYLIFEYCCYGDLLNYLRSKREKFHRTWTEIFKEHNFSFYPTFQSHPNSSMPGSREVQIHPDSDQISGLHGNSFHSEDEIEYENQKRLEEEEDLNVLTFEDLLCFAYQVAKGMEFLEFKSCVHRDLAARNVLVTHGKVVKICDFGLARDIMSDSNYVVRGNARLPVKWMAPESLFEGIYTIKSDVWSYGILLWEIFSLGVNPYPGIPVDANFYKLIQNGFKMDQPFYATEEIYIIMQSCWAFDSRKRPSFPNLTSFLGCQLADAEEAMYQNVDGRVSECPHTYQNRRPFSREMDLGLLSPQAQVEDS
Parameter Measured: IC50 (nM)
Numbers only, in nM.

QUERY: What measured IC50 goes with Nc1n[nH]c2nccc(-c3ccc(NC(=O)Nc4cccc(C(F)(F)F)c4)cc3)c12 ?
RESULT: 2
